Biological target: STE20-like serine/threonine-protein kinase (Homo sapiens, UniProt Q9H2G2); further: in the data inactive means no Kd found up to 30 µM
Sequence (Q9H2G2 whole entry): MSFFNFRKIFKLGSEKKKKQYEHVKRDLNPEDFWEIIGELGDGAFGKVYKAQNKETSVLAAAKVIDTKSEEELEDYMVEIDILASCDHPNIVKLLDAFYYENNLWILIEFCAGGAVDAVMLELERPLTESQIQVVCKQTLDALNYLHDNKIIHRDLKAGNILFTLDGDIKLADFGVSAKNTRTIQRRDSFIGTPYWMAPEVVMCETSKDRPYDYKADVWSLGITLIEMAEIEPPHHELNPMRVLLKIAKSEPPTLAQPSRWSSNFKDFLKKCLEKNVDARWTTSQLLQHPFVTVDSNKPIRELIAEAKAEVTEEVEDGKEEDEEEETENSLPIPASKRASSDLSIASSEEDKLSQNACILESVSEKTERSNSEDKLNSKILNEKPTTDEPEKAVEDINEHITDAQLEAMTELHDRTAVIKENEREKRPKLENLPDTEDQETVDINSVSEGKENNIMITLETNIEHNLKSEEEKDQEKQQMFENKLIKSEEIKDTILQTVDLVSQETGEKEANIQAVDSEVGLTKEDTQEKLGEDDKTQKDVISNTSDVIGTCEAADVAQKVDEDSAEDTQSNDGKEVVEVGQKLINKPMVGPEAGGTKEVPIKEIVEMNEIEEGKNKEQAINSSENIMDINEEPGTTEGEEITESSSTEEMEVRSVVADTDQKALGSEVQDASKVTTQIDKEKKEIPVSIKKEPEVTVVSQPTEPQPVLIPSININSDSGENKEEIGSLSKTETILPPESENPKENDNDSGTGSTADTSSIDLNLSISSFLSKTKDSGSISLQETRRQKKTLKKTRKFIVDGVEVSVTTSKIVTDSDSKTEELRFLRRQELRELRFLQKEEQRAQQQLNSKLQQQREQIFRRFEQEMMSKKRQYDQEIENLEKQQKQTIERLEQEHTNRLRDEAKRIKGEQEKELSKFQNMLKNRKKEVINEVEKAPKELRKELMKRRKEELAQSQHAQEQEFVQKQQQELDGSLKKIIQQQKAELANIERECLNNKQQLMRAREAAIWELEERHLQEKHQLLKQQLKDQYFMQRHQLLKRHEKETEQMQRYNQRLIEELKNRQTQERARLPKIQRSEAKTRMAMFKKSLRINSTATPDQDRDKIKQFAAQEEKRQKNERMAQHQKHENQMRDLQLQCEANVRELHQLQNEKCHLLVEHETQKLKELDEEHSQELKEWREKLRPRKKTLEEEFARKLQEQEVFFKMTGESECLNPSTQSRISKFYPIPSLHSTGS
Activity calls are given as the source filed them.
# valid calls are yes (1) for active, no (0) for inactive; nothing else

Worked examples, 3 compounds total:
c1cc(OCCN2CCCCC2)cc(-c2n[nH]c3ccc(-c4nc[nH]n4)cc23)c1 ... no (0)
CCOc1ccn(-c2ccc(F)cc2)c(=O)c1C(=O)Nc1ccc(Oc2ccnc(N)c2Cl)c(F)c1 ... no (0)
COc1cc2nccc(Oc3ccc(NC(=O)C4(C(=O)Nc5ccc(F)cc5)CC4)cc3)c2cc1OC [CABOZANTINIB] ... no (0)

Prompt: Check the results log: what was the call for "CCc1nc(C(N)=O)c(Nc2ccc(N3CCC(N4CCN(C)CC4)CC3)c(OC)c2)nc1NC1CCOCC1" ?
Response: yes (1)

Prompt: Check the results log: what was the call for "CCN1CCN(Cc2ccc(Nc3ncc(F)c(-c4cc(F)c5nc(C)n(C(C)C)c5c4)n3)nc2)CC1" ?
Response: no (0)

Prompt: Check the results log: what was the call for "C=CCN(/C=C1/C(=O)O[C@H](COC)[C@@]2(C)C1=C(O)C(=O)C1=C2[C@H](OC(C)=O)C[C@]2(C)C(=O)CC[C@@H]12)CC=C" ?
Response: no (0)

Prompt: Check the results log: what was the call for "C[C@@H]1COC(Nc2ccc3ncnc(Nc4ccc(OCc5nccs5)c(Cl)c4)c3c2)=N1" ?
Response: no (0)

Prompt: Check the results log: what was the call for "Cc1c(Cn2c(C)nc3c(C(=O)O)cc(N4CCOCC4)cc32)cccc1C(F)(F)F" ?
Response: no (0)

Prompt: Check the results log: what was the call for "CNC(=O)c1cc(COc2nnc(Nc3ccc(Cl)cc3)c3ccoc23)ccn1" ?
Response: no (0)

Prompt: Check the results log: what was the call for "Cc1cc(Nc2nc(N[C@@H](C)c3ncc(F)cn3)ncc2Cl)n[nH]1" ?
Response: yes (1)

Prompt: Check the results log: what was the call for "CC(C)CC(=O)Nc1[nH]nc2c1CN(C(=O)C1CCN(C)CC1)C2(C)C" ?
Response: no (0)

Prompt: Check the results log: what was the call for "COc1cccc2cc(-c3nc([C@H]4CC[C@H](C(=O)O)CC4)n4ncnc(N)c34)[nH]c12" ?
Response: no (0)

Prompt: Check the results log: what was the call for "COc1cc2ncnc(Nc3ccc(O)cc3)c2cc1OC" ?
Response: yes (1)

Prompt: Check the results log: what was the call for "C=CCn1c(=O)c2cnc(Nc3ccc(N4CCN(C)CC4)cc3)nc2n1-c1cccc(C(C)(C)O)n1" ?
Response: no (0)

Prompt: Check the results log: what was the call for "COCCN1CCN(Cc2ccc(-c3n[nH]c4c3C(=O)c3c(NC(=O)NN5CCOCC5)cccc3-4)cc2)CC1" ?
Response: no (0)

Prompt: Check the results log: what was the call for "CCc1cc2c(cc1N1CCC(N3CCOCC3)CC1)C(C)(C)c1[nH]c3cc(C#N)ccc3c1C2=O" ?
Response: no (0)

Prompt: Check the results log: what was the call for "CC[C@@](C)(Nc1ccnc(-c2c[nH]c3ncccc23)n1)C(=O)NCC(F)(F)F" ?
Response: yes (1)

Prompt: Check the results log: what was the call for "CC1(COc2ccc3c(c2)ncn3-c2ccc3cccc(N4CCC(N)CC4)c3n2)COC1" ?
Response: no (0)

Prompt: Check the results log: what was the call for "COc1cc(F)c(F)c(Nc2ccc(I)cc2F)c1NS(=O)(=O)C1(C[C@H](O)CO)CC1" ?
Response: no (0)

Prompt: Check the results log: what was the call for "C=CC(=O)Nc1cccc(Nc2nc(Nc3ccc(N4CCN(C(C)=O)CC4)cc3OC)ncc2C(F)(F)F)c1" ?
Response: no (0)

Prompt: Check the results log: what was the call for "FC(F)(F)c1ccc(CNc2ccc(Cc3c[nH]c4ncc(Cl)cc34)cn2)cn1" ?
Response: no (0)

----------
Kd, Non-receptor tyrosine-protein kinase TYK2 (Homo sapiens, UniProt P29597), per-entry values.
The source made the active and inactive calls.

Sample answers from the record:
Cn1cc(-c2[nH]c3cc(NC(=O)[C@H](N)C4CCCCC4)cc4c3c2C=NNC4=O)cn1 ... > 30 µM (inactive)
O=C(Nc1ccc(OC(F)(F)F)cc1)c1sccc1NCc1ccnc2ccccc12 ... > 30 µM (inactive)
CNC(=O)c1ccc(Nc2ncc(C(F)(F)F)c(NCc3nccnc3N(C)S(C)(=O)=O)n2)cc1 ... > 30 µM (inactive)
O=c1[nH]c([C@@H]2CCCN2)nc2c1oc1ccc(Cl)cc12 ... > 30 µM (inactive)
COc1cc(F)c(F)c(Nc2ccc(I)cc2F)c1NS(=O)(=O)C1(C[C@H](O)CO)CC1 ... > 30 µM (inactive)

Quick note, Kd for "COc1cc(Nc2ncc(F)c(Nc3ccc4c(n3)N(COP(=O)(O)O)C(=O)C(C)(C)O4)n2)cc(OC)c1OC" landed at > 30 µM (inactive)

Quick note, Kd for "COc1cc2ncnc3c2cc1OCCCCCN(C)Cc1ccc(Br)cc1N3" landed at > 30 µM (inactive)

Quick note, Kd for "CC1(COc2ccc3c(c2)ncn3-c2ccc3cccc(N4CCC(N)CC4)c3n2)COC1" landed at > 30 µM (inactive)

----------
Molecular target: Breakpoint cluster region protein (Homo sapiens); further: in the data inactive means no Kd found up to 30 µM
Sequence (P11274 whole entry): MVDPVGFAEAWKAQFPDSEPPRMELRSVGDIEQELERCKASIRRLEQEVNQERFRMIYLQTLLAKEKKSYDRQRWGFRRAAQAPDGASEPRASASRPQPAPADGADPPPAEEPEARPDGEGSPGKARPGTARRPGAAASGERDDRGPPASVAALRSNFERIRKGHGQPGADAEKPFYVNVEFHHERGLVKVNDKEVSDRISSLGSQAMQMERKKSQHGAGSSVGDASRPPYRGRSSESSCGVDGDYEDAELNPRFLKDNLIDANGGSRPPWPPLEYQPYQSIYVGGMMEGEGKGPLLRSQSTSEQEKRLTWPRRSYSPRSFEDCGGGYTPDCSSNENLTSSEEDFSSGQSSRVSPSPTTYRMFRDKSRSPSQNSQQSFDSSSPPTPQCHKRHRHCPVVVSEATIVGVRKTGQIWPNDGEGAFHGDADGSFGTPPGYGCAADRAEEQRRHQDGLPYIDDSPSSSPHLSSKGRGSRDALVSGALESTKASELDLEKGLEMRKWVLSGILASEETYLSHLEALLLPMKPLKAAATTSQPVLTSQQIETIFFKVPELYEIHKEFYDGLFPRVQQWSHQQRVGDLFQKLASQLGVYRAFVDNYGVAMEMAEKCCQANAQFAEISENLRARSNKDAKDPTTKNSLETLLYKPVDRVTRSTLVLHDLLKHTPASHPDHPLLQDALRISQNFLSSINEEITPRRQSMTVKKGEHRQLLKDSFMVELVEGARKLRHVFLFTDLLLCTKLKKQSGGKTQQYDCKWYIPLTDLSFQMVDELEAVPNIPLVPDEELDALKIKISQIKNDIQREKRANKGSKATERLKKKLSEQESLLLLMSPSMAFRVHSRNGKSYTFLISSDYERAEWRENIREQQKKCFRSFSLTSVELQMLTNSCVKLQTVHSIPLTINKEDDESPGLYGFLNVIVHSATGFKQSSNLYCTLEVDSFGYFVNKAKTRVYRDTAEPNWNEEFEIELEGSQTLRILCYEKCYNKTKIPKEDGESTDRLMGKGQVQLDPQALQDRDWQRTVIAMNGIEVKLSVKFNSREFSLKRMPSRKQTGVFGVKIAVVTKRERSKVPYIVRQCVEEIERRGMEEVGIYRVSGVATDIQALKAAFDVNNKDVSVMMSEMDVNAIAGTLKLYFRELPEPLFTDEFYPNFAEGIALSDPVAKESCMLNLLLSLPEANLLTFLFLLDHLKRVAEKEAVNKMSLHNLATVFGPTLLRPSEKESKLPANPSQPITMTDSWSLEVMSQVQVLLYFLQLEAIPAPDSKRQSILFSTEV
Active and inactive are the calls of the source.
# valid calls are active, inactive; nothing else

COc1cc(F)c(F)c(Nc2ccc(I)cc2F)c1NS(=O)(=O)C1(C[C@H](O)CO)CC1 ... inactive

Prompt: Check the results log: what was the call for "CNC(=O)c1cccc(-c2ccc3c(N4CCOC[C@@H]4C)nc(N4CCOC[C@@H]4C)nc3n2)c1" ?
Response: inactive

----------
Molecular target: Insulin-like growth factor 1 receptor (Homo sapiens, UniProt P08069); further: in the data inactive means no Kd found up to 30 µM
Sequence (P08069 31-736 limits assumed): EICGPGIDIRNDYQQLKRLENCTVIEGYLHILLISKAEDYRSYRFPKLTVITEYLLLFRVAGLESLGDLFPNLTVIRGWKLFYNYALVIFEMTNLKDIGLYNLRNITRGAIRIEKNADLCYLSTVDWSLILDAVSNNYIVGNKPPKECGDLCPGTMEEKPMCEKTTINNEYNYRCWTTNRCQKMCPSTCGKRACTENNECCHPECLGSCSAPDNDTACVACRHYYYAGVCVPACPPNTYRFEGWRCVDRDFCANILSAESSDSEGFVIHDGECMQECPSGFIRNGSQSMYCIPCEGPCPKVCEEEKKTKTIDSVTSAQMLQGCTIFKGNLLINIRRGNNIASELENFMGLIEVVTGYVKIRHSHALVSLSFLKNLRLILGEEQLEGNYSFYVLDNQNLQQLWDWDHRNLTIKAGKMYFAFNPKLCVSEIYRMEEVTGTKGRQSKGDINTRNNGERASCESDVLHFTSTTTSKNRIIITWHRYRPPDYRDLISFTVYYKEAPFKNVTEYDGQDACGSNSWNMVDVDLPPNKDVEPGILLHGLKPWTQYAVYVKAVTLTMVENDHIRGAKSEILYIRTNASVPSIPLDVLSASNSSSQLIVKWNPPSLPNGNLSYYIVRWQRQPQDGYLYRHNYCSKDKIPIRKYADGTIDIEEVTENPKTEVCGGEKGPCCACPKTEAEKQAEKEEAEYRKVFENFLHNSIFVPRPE
Sequence (P08069 741-1367 limits assumed): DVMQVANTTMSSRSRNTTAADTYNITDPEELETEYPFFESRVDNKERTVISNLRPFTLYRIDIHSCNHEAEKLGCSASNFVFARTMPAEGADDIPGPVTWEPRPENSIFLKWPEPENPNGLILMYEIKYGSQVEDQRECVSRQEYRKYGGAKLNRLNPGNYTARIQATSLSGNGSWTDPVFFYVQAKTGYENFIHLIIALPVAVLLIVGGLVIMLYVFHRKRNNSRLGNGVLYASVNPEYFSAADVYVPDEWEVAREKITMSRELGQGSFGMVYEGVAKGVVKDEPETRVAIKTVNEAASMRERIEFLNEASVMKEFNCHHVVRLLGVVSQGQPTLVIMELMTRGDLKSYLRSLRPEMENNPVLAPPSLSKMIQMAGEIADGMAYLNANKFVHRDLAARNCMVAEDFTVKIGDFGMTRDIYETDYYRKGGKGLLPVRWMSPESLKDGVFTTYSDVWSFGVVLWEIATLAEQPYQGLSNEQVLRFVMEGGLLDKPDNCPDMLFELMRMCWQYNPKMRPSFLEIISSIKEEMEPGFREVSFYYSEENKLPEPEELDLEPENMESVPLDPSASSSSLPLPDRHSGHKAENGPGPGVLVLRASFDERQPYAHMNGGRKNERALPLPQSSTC
The source made the active and inactive calls.
endpoint: Kd

Sample answers from the record:
C=CC(=O)Nc1cccc(Nc2nc(Nc3ccc(N4CCN(C(C)=O)CC4)cc3OC)ncc2C(F)(F)F)c1 ... > 30 µM (inactive)
COc1cc2nccc(Oc3ccc(NC(=O)C4(C(=O)Nc5ccc(F)cc5)CC4)cc3)c2cc1OC [CABOZANTINIB] ... > 30 µM (inactive)
Cc1c(NC(=O)OC[C@@H]2COCCN2)cn2ncnc(Nc3ccc4c(cnn4Cc4cccc(F)c4)c3)c12 ... > 30 µM (inactive)
Cn1c(=O)c(F)c(Nc2ccc(I)cc2F)c2c(=O)n(C[C@@H](O)CO)cnc21 ... > 30 µM (inactive)
CCN1CCN(Cc2ccc(Nc3ncc(F)c(-c4cc(F)c5nc(C)n(C(C)C)c5c4)n3)nc2)CC1 ... > 30 µM (inactive)
C#Cc1cccc(Nc2ncnc3cc4c(cc23)OCCOCCOCCO4)c1 ... > 30 µM (inactive)
COc1cc2ncnc(Nc3ccc(O)cc3)c2cc1OC ... > 30 µM (inactive)

Item "CCc1nc(C(N)=O)c(Nc2ccc(N3CCC(N4CCN(C)CC4)CC3)c(OC)c2)nc1NC1CCOCC1" ; assay system Insulin-like growth factor 1 receptor (Homo sapiens, UniProt P08069); Kd reported as > 30 µM (inactive)

----------
Biological target: cAMP-dependent protein kinase catalytic subunit alpha (Homo sapiens, UniProt P17612); further: in the data inactive means no Kd found up to 30 µM
Calls of active or inactive are those of the source.
# valid calls are true for active, false for inactive; nothing else

COc1ccc(-c2ccc3ncc4c(c3c2)n(-c2ccc(N3CCNCC3)c(C(F)(F)F)c2)c(=O)n4C)cn1 [BGT-226 FREE BASE] ... false
Cc1cc(C(=O)Nc2cc(Oc3ccc4nc(NC(=O)C5CC5)cn4n3)ccc2C)n(C)n1 ... false
Cn1c(=O)c(F)c(Nc2ccc(I)cc2F)c2c(=O)n(C[C@@H](O)CO)cnc21 ... false
CNC(=O)c1cccc(-c2ccc3c(N4CCOC[C@@H]4C)nc(N4CCOC[C@@H]4C)nc3n2)c1 ... false
Cc1c(Cn2c(C)nc3c(C(=O)O)cc(N4CCOCC4)cc32)cccc1C(F)(F)F ... false

Prompt: Check the results log: what was the call for "C[C@@H]1COC(Nc2ccc3ncnc(Nc4ccc(OCc5nccs5)c(Cl)c4)c3c2)=N1" ?
Response: false

----------
Biological target: Serine/threonine-protein kinase N1 (Homo sapiens, UniProt Q16512); further: in the data inactive means no Kd found up to 30 µM
Sequence (Q16512 whole entry): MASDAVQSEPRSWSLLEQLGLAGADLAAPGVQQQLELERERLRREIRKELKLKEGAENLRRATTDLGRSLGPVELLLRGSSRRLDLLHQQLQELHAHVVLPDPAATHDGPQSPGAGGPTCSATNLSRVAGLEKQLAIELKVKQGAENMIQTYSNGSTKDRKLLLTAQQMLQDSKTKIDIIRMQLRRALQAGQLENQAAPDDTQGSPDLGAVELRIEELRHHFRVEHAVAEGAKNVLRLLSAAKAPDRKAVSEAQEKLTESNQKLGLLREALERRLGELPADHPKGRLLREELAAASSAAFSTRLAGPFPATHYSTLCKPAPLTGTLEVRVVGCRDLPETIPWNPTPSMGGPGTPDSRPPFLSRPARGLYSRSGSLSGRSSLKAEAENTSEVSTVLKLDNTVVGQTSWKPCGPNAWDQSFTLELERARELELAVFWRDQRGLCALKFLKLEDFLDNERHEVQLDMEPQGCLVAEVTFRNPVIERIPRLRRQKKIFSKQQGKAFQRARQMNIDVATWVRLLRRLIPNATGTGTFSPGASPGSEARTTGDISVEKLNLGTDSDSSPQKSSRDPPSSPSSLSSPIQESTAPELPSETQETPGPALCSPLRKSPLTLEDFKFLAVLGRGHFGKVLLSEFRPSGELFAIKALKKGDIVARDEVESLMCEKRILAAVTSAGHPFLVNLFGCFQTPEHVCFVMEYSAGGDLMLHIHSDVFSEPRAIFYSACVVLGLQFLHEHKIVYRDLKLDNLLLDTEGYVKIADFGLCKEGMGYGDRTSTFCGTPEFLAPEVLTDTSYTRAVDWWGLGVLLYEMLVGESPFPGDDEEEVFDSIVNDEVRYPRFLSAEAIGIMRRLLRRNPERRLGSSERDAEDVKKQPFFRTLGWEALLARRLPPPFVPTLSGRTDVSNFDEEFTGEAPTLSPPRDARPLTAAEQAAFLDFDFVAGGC
The source made the active and inactive calls.
# valid calls are t for active, f for inactive; nothing else

C#Cc1cccc(Nc2ncnc3cc4c(cc23)OCCOCCOCCO4)c1 [ICOTINIB] ... f
CC(C)(O)CC(=O)NCCn1ccc2ncnc(Nc3ccc(Oc4cccc(C(F)(F)F)c4)c(Cl)c3)c21 [TAK-285] ... f

Prompt: Check the results log: what was the call for c1cc(OCCN2CCCCC2)cc(-c2n[nH]c3ccc(-c4nc[nH]n4)cc23)c1 [CC-401] ?
Response: f

Prompt: Check the results log: what was the call for COc1cc2nccc(Oc3ccc(NC(=O)C4(C(=O)Nc5ccc(F)cc5)CC4)cc3)c2cc1OC [CABOZANTINIB] ?
Response: f

Prompt: Check the results log: what was the call for C=CCN(/C=C1/C(=O)O[C@H](COC)[C@@]2(C)C1=C(O)C(=O)C1=C2[C@H](OC(C)=O)C[C@]2(C)C(=O)CC[C@@H]12)CC=C [SONOLISIB] ?
Response: f

Prompt: Check the results log: what was the call for Cc1cc(-c2cc(OC(=O)c3ccccc3)ccc2Cl)cc2nnc(Nc3ccc(OCCN4CCCC4)cc3)nc12 [TG100-801] ?
Response: f

Prompt: Check the results log: what was the call for CCc1cc2c(cc1N1CCC(N3CCOCC3)CC1)C(C)(C)c1[nH]c3cc(C#N)ccc3c1C2=O [ALECTINIB] ?
Response: f

Prompt: Check the results log: what was the call for CC1(COc2ccc3c(c2)ncn3-c2ccc3cccc(N4CCC(N)CC4)c3n2)COC1 [CRENOLANIB] ?
Response: t

Prompt: Check the results log: what was the call for C[C@]1(O)C[C@@H](c2nc(-c3ccc4ccc(-c5ccccc5)nc4c3)c3c(N)nccn32)C1 [LINSITINIB] ?
Response: f

Prompt: Check the results log: what was the call for CNC(=O)c1cccc(-c2ccc3c(N4CCOC[C@@H]4C)nc(N4CCOC[C@@H]4C)nc3n2)c1 [VISTUSERTIB] ?
Response: f

Prompt: Check the results log: what was the call for C[C@@H]1COC(Nc2ccc3ncnc(Nc4ccc(OCc5nccs5)c(Cl)c4)c3c2)=N1 [VARLITINIB] ?
Response: f

Prompt: Check the results log: what was the call for CN(c1ncccc1CNc1nc(Nc2ccc3c(c2)CC(=O)N3)ncc1C(F)(F)F)S(C)(=O)=O [PF-00562271] ?
Response: t

Prompt: Check the results log: what was the call for O=S(=O)(c1cccc2cnccc12)N1CCCNCC1 [FASUDIL] ?
Response: t

Prompt: Check the results log: what was the call for "Cn1cc(-c2[nH]c3cc(NC(=O)[C@H](N)C4CCCCC4)cc4c3c2C=NNC4=O)cn1" ?
Response: t

Prompt: Check the results log: what was the call for Cc1c(NC(=O)OC[C@@H]2COCCN2)cn2ncnc(Nc3ccc4c(cnn4Cc4cccc(F)c4)c3)c12 [AC-480] ?
Response: f

Prompt: Check the results log: what was the call for Cc1cc(C(=O)Nc2cc(Oc3ccc4nc(NC(=O)C5CC5)cn4n3)ccc2C)n(C)n1 [TAK-593] ?
Response: f
